assay.system: Bifunctional epoxide hydrolase 2 (Homo sapiens)
experiment: Inhibition of recombinant human sEH at 100 nM using PHOME as substrate measured after 15 mins by fluorescence assay relative to control
Binning rule for recorded inhibition: class 1 = under 50%, class 2 = from 50% up to 70%, class 3 = 70% and over

O=C(Cc1ccccc1)Nc1nc2ccc(N(CCN3CCOCC3)C(=O)Nc3ccc(F)c(Br)c3)cc2s1 | class 3
CC(=O)Nc1ccc(NC(=O)N(CCN2CCOCC2)c2ccc3nc(N)sc3c2)cc1 | class 2
O=C(Cc1ccccc1F)Nc1nc2ccc(N(CCN3CCOCC3)C(=O)Nc3ccc(Cl)cc3)cc2s1 | class 3
Cc1ccc(NC(=O)N(CCN2CCOCC2)c2ccc3nc(N)sc3c2)cc1 | class 3
CC(=O)Nc1ccc2nc(NC(=O)NCc3ccc(Cl)cc3)sc2c1 | class 1
O=C(Cc1ccccc1F)Nc1nc2ccc(N(CCN3CCOCC3)C(=O)Nc3ccc(F)c(Br)c3)cc2s1 | class 3
CCc1ccc(NC(=O)N(CCN2CCOCC2)c2ccc3nc(NC(=O)Cc4ccccc4F)sc3c2)cc1 | class 3
Nc1nc2ccc(N(CCN3CCOCC3)C(=O)Nc3ccc(Cl)cc3Cl)cc2s1 | class 2

In: For the record CC(=O)Nc1ccc2nc(NC(=O)Nc3ccc(Cl)cc3)sc2c1 , report the class its inhibition corresponds to.
Out: class 1

In: # bin lookup: classify CC(C)Oc1ccc(NC(=O)N(CCN2CCOCC2)c2ccc3nc(N)sc3c2)cc1 by its inhibition
Out: class 2

In: Bin this entry: Nc1nc2ccc(N(CCN3CCOCC3)C(=O)Nc3ccc(Br)cc3)cc2s1
Out: class 3

In: Lab note: which band did O=C(Nc1nc2ccc(N(CCN3CCOCC3)C(=O)Nc3ccc(Cl)cc3)cc2s1)C1CC1 land in?
Out: class 1

In: Which category fits this record: Nc1nc2ccc(N(CCN3CCOCC3)C(=O)Nc3cccc(Cl)c3)cc2s1
Out: class 1

====

experiment: in vitro
settings: Sprague-Dawley, rat, liver microsomes
Description: Half life in Sprague-Dawley rat liver microsomes at 10 uM measured up to 60 mins in presence of NADPH regenerating system by HPLC analysis
observation.type: half-life at 1 h, 10 µM (min)
The answer is to be given in min; state only the numeric part.

Example compounds with recorded half-life at 1 h, 10 µM:
Nc1nc2ccc(N(CCN3CCOCC3)C(=O)Nc3ccc(Cl)cc3)cc2s1 | 34.7
O=C(Cc1ccccc1)Nc1nc2ccc(N(CCN3CCOCC3)C(=O)Nc3ccc(Cl)cc3)cc2s1 | 1.7
Nc1nc2ccc(N(CCN3CCOCC3)C(=O)Nc3ccc(F)c(Br)c3)cc2s1 | 44.7

Recorded half-life at 1 h, 10 µM (compound O=C(O)Cc1ccccc1Nc1c(Cl)cccc1Cl ): 23.4

====

experiment: in vitro
settings: Sprague-Dawley, rat, liver microsomes
Description: Stability in Sprague-Dawley rat liver microsomes assessed as parent compound remaining at 10 uM measured after 60 mins in absence of NADPH regenerating system by HPLC analysis
Items are presented alongside their recorded remaining at 1 h, 10 µM.
Express the result in % but write the number alone.

Nc1nc2ccc(N(CCN3CCOCC3)C(=O)Nc3ccc(F)c(Br)c3)cc2s1 | 85
Nc1nc2ccc(N(CCN3CCOCC3)C(=O)Nc3ccc(Cl)cc3)cc2s1 | 99.5
O=C(O)Cc1ccccc1Nc1c(Cl)cccc1Cl | 96.3

As a next step, examine the compound that follows.
Record summary for O=C(Cc1ccccc1)Nc1nc2ccc(N(CCN3CCOCC3)C(=O)Nc3ccc(Cl)cc3)cc2s1 : reported remaining at 1 h, 10 µM = 116

====

assay.system: Bifunctional epoxide hydrolase 2 (Homo sapiens)
Sequence (whole entry): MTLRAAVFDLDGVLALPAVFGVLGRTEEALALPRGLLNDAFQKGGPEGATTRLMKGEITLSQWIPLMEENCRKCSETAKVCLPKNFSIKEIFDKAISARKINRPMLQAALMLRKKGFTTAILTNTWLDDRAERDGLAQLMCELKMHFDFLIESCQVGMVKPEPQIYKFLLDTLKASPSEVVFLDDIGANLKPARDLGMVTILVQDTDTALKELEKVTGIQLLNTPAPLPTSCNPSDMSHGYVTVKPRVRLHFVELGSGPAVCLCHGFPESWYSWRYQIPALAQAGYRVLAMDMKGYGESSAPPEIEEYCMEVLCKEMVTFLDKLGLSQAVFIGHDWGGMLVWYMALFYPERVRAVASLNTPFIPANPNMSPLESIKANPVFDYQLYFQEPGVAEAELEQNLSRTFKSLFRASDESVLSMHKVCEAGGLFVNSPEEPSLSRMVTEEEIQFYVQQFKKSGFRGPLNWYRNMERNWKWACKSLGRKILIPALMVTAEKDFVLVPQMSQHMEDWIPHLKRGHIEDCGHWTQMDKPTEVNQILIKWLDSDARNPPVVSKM
experiment: Inhibition of recombinant human sEH at 100 nM using PHOME as substrate measured after 15 mins by fluorescence assay relative to control
observation.type: inhibition (%)
Quick note: give the figure in %, leave out the unit.

Reference set (2 entries):
Nc1nc2ccc(NC(=O)Nc3ccc(OC(F)(F)F)cc3)cc2s1 | 60.2
Cc1ccccc1NC(=O)N(CCN1CCOCC1)c1ccc2nc(N)sc2c1 | 26.3

In plain terms, Nc1nc2ccc(N(CCN3CCOCC3)C(=O)Nc3ccc([N+](=O)[O-])cc3)cc2s1 has a documented inhibition of 19.2

Per the records, this molecule ( COc1ccc(NC(=O)Nc2ccc3nc(N)sc3c2)cc1 ) has inhibition equal to 39.3

Given item Nc1ccc2nc(NC(=O)NCc3ccc(Cl)cc3)sc2c1 , the value recorded as its inhibition is 14.2

The recorded inhibition for entry NC(=O)Nc1ccc2nc(N)sc2c1 equals 25.3

Value of measured inhibition for the entry CCc1ccc(NC(=O)N(CCN2CCOCC2)c2ccc3nc(NC(=O)Cc4ccccc4)sc3c2)cc1 : 76.8

The recorded inhibition for entry O=C(Cc1ccc(Cl)cc1Cl)Nc1nc2ccc(N(CCN3CCOCC3)C(=O)Nc3ccc(Cl)cc3)cc2s1 equals 71.8

inhibition in this record for Nc1nc2ccc(NC(=O)NC3CCCCC3)cc2s1 : 59.9

# inhibition of CC(C)c1ccc(NC(=O)N(CCN2CCOCC2)c2ccc3nc(N)sc3c2)cc1 = 75.2

inhibition in this record for Nc1nc2ccc(N(CCN3CCOCC3)C(=O)Nc3ccc(OC(F)(F)F)cc3)cc2s1 : 61.3

So, Nc1nc2ccc(N(CCN3CCOCC3)C(=O)Nc3ccccn3)cc2s1 ? Its inhibition was 16.2

# inhibition (molecule: Nc1nc2ccc(N(CCN3CCOCC3)C(=O)Nc3ccccc3Cl)cc2s1 ) is 59.7

Record Nc1nc2ccc(N(CCN3CCOCC3)C(=O)Nc3ccc(C(F)(F)F)cc3)cc2s1 , field inhibition: 62

Documented inhibition of Nc1nc2ccc(N(CCN3CCOCC3)C(=O)Nc3cccc4ccccc34)cc2s1 : 39

Reported inhibition ( Nc1nc2ccc(NC(=O)NC34CC5CC(CC(C5)C3)C4)cc2s1 ) = 77.3

The value of inhibition measured for the molecule Nc1nc2ccc(N(CCN3CCOCC3)C(=O)Nc3ccc(Cl)cc3)cc2s1 turned out to be 89.1
